System: Candida tropicalis ATCC 750
ASSAY_TEXT: Minimum inhibitory concentration (MIC) test against fungi
Format: cell-based
EXPERIMENTAL_PARAMETERS: Candida tropicalis, ATCC750, 24 h, ≥50% growth inhibition by eye, three independent experiments, read-out: MIC
EXPERIMENTAL_READOUT: MIC (mg/L)

INSERT INTO results (smiles_code, experimental_readout, measured_result) VALUES
  ('Cc1cc(C#CCc2ccc(COc3ccccn3)cc2)cnc1N', 'MIC', 0.05),
  ('Nc1ncc(C#CCc2ccc(COc3ccccn3)cc2)cc1F', 'MIC', 0.05),
  ('Cc1nc(N)ccc1C#CCc1ccc(COc2ccccn2)cc1', 'MIC', 0.0125),
  ('Nc1ncccc1C#CCc1ccc(COc2ccccn2)cc1', 'MIC', 0.0125),
  ('Nc1ccc(C#CCc2ccc(Oc3cccc(F)n3)cc2)cn1', 'MIC', 0.1);

====

ASSAY_TEXT: Pharmacokinetic evaluation in mice (IV)
Format: in vivo, CD-1 mice
EXPERIMENTAL_PARAMETERS: CD-1, plasma, 1 mg/kg, Mouse, 1 mpk
EXPERIMENTAL_READOUT: half-life (h)

INSERT INTO assay_data (smiles_code, unit_descriptor, measured_result) VALUES
  ('Nc1ccc(C#CCc2ccc(COc3ccccn3)cc2)cn1', 'h', 2.1);

These measurements were taken from patent US12492169B2.
